Target of assay: Oxysterols receptor LXR-alpha (Homo sapiens, UniProt Q13133)
Sequence (Q13133 whole entry): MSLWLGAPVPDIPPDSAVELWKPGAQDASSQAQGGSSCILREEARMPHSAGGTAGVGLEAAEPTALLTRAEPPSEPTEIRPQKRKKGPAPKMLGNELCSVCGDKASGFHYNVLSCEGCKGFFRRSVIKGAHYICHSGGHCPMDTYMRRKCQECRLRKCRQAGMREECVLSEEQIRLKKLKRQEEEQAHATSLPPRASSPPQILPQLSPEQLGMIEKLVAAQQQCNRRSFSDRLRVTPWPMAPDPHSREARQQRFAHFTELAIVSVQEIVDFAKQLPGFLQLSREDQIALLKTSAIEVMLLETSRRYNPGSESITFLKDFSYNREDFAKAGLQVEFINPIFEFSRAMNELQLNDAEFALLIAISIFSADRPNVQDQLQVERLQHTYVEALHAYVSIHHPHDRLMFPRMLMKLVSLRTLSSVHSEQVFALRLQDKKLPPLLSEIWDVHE
Assay: Antagonist activity at human recombinant LXRalpha expressed in HEK293 cells by luciferase reporter gene assay
Recorded endpoint: log10 of IC50 (log10 of the value in µM)
In plain terms, each number is the log10 of measured IC50 in µM.

Example compounds with recorded log10 of IC50:
{"columns": ["Smiles representation", "Measurement"],
 "data": [
  ["O=c1c(-c2ccc(O)cc2)coc2cc(O)cc(O)c12", 1.49],
  ["Oc1ccc2c(c1)CCc1ccc(cc1)Oc1cccc(c1)CCc1ccc-2c(O)c1", 0.92],
  ["Oc1ccc2c(c1)CCc1ccc(cc1)Oc1cc(ccc1O)CCc1ccc-2c(O)c1", 0.69],
  ["Oc1ccc2c(c1)CCc1ccc(cc1)Oc1cc(ccc1O)CCc1ccc-2cc1", 0.64],
  ["COc1ccc2cc1Oc1ccc(cc1)CCc1ccccc1-c1ccc(cc1)CC2", 0.88]
]}

# query: log10 of IC50 of entry COc1ccc2c(c1)CCc1ccc(cc1)Oc1cc(ccc1OC)CCc1ccc-2c(OC)c1
0.30

# query: log10 of IC50 of entry COc1ccc2c(c1)CCc1ccc(cc1)Oc1cccc(c1)CCc1ccc-2c(OC)c1
1.40

# query: log10 of IC50 of entry COc1cc2ccc1-c1ccccc1CCc1ccc(cc1)Oc1cccc(c1)CC2
0.40

# query: log10 of IC50 of entry COc1ccc2c(c1)CCc1ccc(cc1)Oc1cc(ccc1OC)CCc1ccc-2cc1
0.56

# query: log10 of IC50 of entry Oc1ccc2cc1Oc1ccc(cc1)CCc1ccccc1-c1ccc(cc1O)CC2
0.82

# query: log10 of IC50 of entry Oc1ccc2cc1Oc1ccc(cc1)CCc1ccccc1-c1ccc(cc1)CC2
0.76

# query: log10 of IC50 of entry CC(C)c1cccc(C(C)C)c1N1C(=O)c2ccccc2C1=S
0.49

# query: log10 of IC50 of entry Oc1cc2ccc1-c1ccccc1CCc1ccc(cc1)Oc1cccc(c1)CC2
0.51

# query: log10 of IC50 of entry c1cc2cc(c1)Oc1ccc(cc1)CCc1ccccc1-c1ccc(cc1)CC2
0.85

# query: log10 of IC50 of entry COc1ccc2cc1Oc1ccc(cc1)CCc1ccccc1-c1ccc(cc1OC)CC2
0.34

----------
Each entry below carries its recorded IC50.
Target of assay: Oxysterols receptor LXR-beta (Homo sapiens)
Sequence (P55055 whole entry): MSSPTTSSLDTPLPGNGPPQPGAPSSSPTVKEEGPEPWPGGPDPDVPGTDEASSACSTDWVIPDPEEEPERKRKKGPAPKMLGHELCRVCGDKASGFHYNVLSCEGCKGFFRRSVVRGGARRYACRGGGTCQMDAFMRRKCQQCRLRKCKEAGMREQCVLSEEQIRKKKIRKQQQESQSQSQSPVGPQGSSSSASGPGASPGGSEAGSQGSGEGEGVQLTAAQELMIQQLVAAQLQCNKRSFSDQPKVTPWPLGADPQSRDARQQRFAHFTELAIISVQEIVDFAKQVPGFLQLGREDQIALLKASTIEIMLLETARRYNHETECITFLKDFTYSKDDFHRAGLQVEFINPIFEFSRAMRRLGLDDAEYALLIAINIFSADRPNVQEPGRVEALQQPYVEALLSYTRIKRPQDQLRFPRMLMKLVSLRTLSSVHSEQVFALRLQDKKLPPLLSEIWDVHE
Assay: Antagonist activity at human recombinant LXRbeta expressed in HEK293 cells by luciferase reporter gene assay
Give just the number in µM; leave the unit off.

Example compounds with recorded IC50:
{"columns": ["Smiles representation", "IC50 (µM)"],
 "data": [
  ["Oc1cc2ccc1-c1ccccc1CCc1ccc(cc1)Oc1cccc(c1)CC2", 7.3],
  ["COc1ccc2c(c1)CCc1ccc(cc1)Oc1cccc(c1)CCc1ccc-2c(OC)c1", 46],
  ["c1cc2cc(c1)Oc1ccc(cc1)CCc1ccccc1-c1ccc(cc1)CC2", 77],
  ["COc1ccc2c(c1)CCc1ccc(cc1)Oc1cc(ccc1OC)CCc1ccc-2c(OC)c1", 14],
  ["COc1ccc2c(c1)CCc1ccc(cc1)Oc1cc(ccc1OC)CCc1ccc-2cc1", 26],
  ["Oc1ccc2c(c1)CCc1ccc(cc1)Oc1cc(ccc1O)CCc1ccc-2cc1", 7.6],
  ["Oc1ccc2c(c1)CCc1ccc(cc1)Oc1cccc(c1)CCc1ccc-2c(O)c1", 10],
  ["CC(C)c1cccc(C(C)C)c1N1C(=O)c2ccccc2C1=S", 18]
]}

Lab note: next compound to report on.
# query: IC50 of entry Oc1ccc2cc1Oc1ccc(cc1)CCc1ccccc1-c1ccc(cc1O)CC2
13

Entry source: ChEMBL document CHEMBL1144755
